Values from paper PMC4012445

Parameter: pIC50. Scope: all listed entries.
Test system: Staphylococcus epidermidis (DSM 20044)
assay_explanation: Antibiotic activity against Staphylococcus epidermidis
Type: cell-based
experimental_parameters: DSM20044, growth inhibition, 0.1–50 µM analyzed twice in duplicates, read-out: IC50, antibiotic activity, S. epidermidis
Bear in mind: pIC50 is minus log10 of a mol/L concentration; give just that figure.

Worked cases, answers included:
CC(C)=CCC/C(C)=C/CC/C(C)=C/Cc1c(O)cc(C)c(C=O)c1O [Compound 13, ilicicolin B]: 5.50
CC1CCC2C(C)(C)C(O)CCC2(C)C12Cc1c(O)cc3c(c1O2)CN(C1OCc2cc(O)c4c(c21)OC1(C4)C(C)CCC2C(C)(C)C(O)CCC21C)C3=O (centres unmarked) [Compound 2, stachyin B]: 5.99
C[C@H]1CC[C@@H]2C(C)(C)[C@@H](O)CC[C@@]2(C)[C@]12Cc1c(O)cc3c(c1O2)CN(CCCCC(C(=O)O)N1Cc2c(cc(O)c4c2O[C@@]2(C4)[C@@H](C)CC[C@@H]4C(C)(C)[C@@H](O)CC[C@]42C)C1=O)C3=O (some centres unmarked) [Compound 12, stachybocin A]: 5.55
O=C(N[C@H](CO)[C@H](O)c1ccc([N+](=O)[O-])cc1)C(Cl)Cl [Chloramphenicol, chloramphenicol, reference compound]: 5.74

Proceeding to the next compound to report its pIC50.
Return reported pIC50; argument: C[C@H]1CC[C@@H]2C(C)(C)[C@@H](O)[C@H](O)C[C@@]2(C)[C@]12Cc1c(O)cc3c(c1O2)CN(CCCCC(C(=O)O)N1Cc2c(cc(O)c4c2O[C@@]2(C4)[C@@H](C)CC[C@@H]4C(C)(C)[C@@H](O)[C@@H](O)C[C@]42C)C1=O)C3=O (some centres unmarked) [Compound 11, stachybocin B]
5.35
